# experimental.target: human uPAR (uPAR-Fc) (Homo sapiens)
# Construct: comprising amino acids Leu23-Arg303 according to UniProt entry Q03405.1; purchased R&D Systems 10378-UK-100
# Sequence (Q03405 23-303): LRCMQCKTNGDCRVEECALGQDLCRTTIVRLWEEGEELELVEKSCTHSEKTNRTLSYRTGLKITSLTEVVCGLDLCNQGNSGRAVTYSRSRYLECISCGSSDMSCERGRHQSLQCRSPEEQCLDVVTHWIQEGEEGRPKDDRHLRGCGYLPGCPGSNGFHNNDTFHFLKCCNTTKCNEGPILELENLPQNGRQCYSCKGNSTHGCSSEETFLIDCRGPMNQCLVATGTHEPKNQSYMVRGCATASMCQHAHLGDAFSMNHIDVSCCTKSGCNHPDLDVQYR
# test.method.notes: Surface plasmon resonance (SPR) assay, single cycle kinetics
# Assay type: binding
# condition.description: pKD category for uPAR SPR activity assay; uPAR-Fc on Protein A-Chip, single cycle kinetics, 25°C; read-out: pKD CAT (converted)
Where a SMILES comes first, the peptide text is derived from it. Bridges are numbered along the chain shown (N, C = ends). [ ]: non-standard residue; d: D form. The star is where a group is joined. Hyp = O=C(O)[C@@H]1C[C@@H](O)CN1; Pentanoyl(4-Me) = CC(C)CCC(=O)*; Cha = N[C@@H](CC1CCCCC1)C(=O)O; Cit = NC(=O)NCCC[C@H](N)C(=O)O; Dab = NCC[C@H](N)C(=O)O; Nva = CCC[C@H](N)C(=O)O; Pentanoyl = CCCCC(=O)*
# Kd per record follows

Use these answered entries as a reference point.
compound	assay.value
CC[C@H](C)[C@@H]1NC(=O)[C@@H](CCCNC(=N)N)NC(=O)[C@@H]2CCCN2C(=O)[C@H](Cc2ccccc2)NC(=O)[C@H](Cc2ccc(O)cc2)NC(=O)[C@H](CCC(N)=O)NC(=O)[C@H](CCCNC(N)=O)NC(=O)[C@@H](NC(=O)CCC(C)C)CSSC[C@@H](C(N)=O)NC(=O)[C@H](CC(C)C)NC1=O [UPAR-357] ({Pentanoyl(4-Me)}-C[Cit]QYFP[dR]ILC-NH2; disulfide 1-10)	1.58 to 10 nM
CCCCC(=O)N[C@H]1CSSC[C@@H](C(N)=O)NC(=O)[C@H](CCC)NC(=O)[C@H](CCCCN)NC(=O)[C@@H]2C[C@@H](O)CN2C(=O)[C@@H]2CCCN2C(=O)[C@H](Cc2ccccc2)NC(=O)[C@H](Cc2ccc(O)cc2)NC(=O)[C@H](CCC(N)=O)NC(=O)[C@H](CCCNC(=N)N)NC1=O [UPAR-385] (Pentanoyl-CRQYFP[Hyp]K[Nva]C-NH2; disulfide 1-10)	10 to 100 nM
CC[C@H](C)[C@@H]1NC(=O)[C@@H](C)NC(=O)[C@@H]2CCCN2C(=O)[C@H](Cc2ccccc2)NC(=O)[C@H](Cc2ccc(O)cc2)NC(=O)[C@H](CCC(N)=O)NC(=O)[C@@H](CCCNC(=N)N)NC(=O)[C@@H](NC(=O)CCC(C)C)CSSC[C@@H](C(N)=O)NC(=O)[C@H](CC(C)C)NC1=O [UPAR-467] ({Pentanoyl(4-Me)}-C[dR]QYFP[dA]ILC-NH2; disulfide 1-10)	10 to 100 nM
CCC[C@@H]1NC(=O)[C@H]([C@@H](C)CC)NC(=O)[C@@H]2C[C@@H](O)CN2C(=O)[C@@H]2CCCN2C(=O)[C@H](Cc2ccccc2)NC(=O)[C@H](Cc2ccc(O)cc2)NC(=O)[C@H](CCC(N)=O)NC(=O)[C@H](CCCNC(=N)N)NC(=O)[C@@H](NC(=O)[C@H](CC2CCCCC2)NC(C)=O)CSSC[C@@H](C(N)=O)NC1=O [UPAR-372] (Ac-[Cha]CRQYFP[Hyp]I[Nva]C-NH2; disulfide 2-11)	< 1.58 nM

# evaluate next
The value of Kd recorded for CCCCC(=O)N[C@H]1CCNC(=O)CC[C@@H](C(N)=O)NC(=O)[C@H](CCC)NC(=O)[C@H]([C@@H](C)CC)NC(=O)[C@@H]2C[C@@H](O)CN2C(=O)[C@@H]2CCCN2C(=O)[C@H](Cc2ccccc2)NC(=O)[C@H](Cc2ccc(O)cc2)NC(=O)[C@H](CCC(N)=O)NC(=O)[C@H](CCCNC(=N)N)NC1=O [UPAR-390] (Pentanoyl-[Dab]RQYFP[Hyp]I[Nva]E-NH2; lactam 1-10) when tested on human uPAR (uPAR-Fc) (Homo sapiens) reads > 100 nM

----------
Documented Kd across a set of compounds
# experimental.target: human uPAR (uPAR-Fc) (Homo sapiens)
# Construct: comprising amino acids Leu23-Arg303 according to UniProt entry Q03405.1; purchased R&D Systems 10378-UK-100
# test.method.notes: Surface plasmon resonance (SPR) assay, single cycle kinetics
# Assay type: binding
# condition.description: pKD category for uPAR SPR activity assay; uPAR-Fc on Protein A-Chip, 25°C; read-out: pKD CAT (converted)
*1 amine or outer side, *2 acyl side, *3 side chain or, on linkers, in order; H or OH if unused. Where a SMILES comes first, the peptide text is derived from it. Bridges are numbered along the chain shown (N, C = ends). [ ]: non-standard residue; d: D form. The star is where a group is joined. DOTA = O=C(O)CN1CCN(CC(=O)O)CCN(CC(=O)*)CCN(CC(=O)O)CC1; Phe(4-CONH2) = NC(=O)c1ccc(C[C@H](N)C(=O)O)cc1; Phe(4-Cl) = N[C@@H](Cc1ccc(Cl)cc1)C(=O)O; Pro(cis-4-F) = O=C(O)[C@@H]1C[C@H](F)CN1; Hyp = O=C(O)[C@@H]1C[C@@H](O)CN1; Pentanoyl(4-Me) = CC(C)CCC(=O)*; Cit = NC(=O)NCCC[C@H](N)C(=O)O; Butoxycarbonyl = CCCCOC(=O)*; NMeNle = CCCC[C@H](NC)C(=O)O; Tle = CC(C)(C)[C@H](N)C(=O)O; Orn = NCCC[C@H](N)C(=O)O; dDap = NC[C@@H](N)C(=O)O; Nva = CCC[C@H](N)C(=O)O; Pentanoyl = CCCCC(=O)*; CO = O=C([*:1])[*:2]; NHPr = CCCN*

Reference set (8 entries):
compound	Kd
CCCNC(=O)N[C@H]1CSSC[C@@H](C(N)=O)NC(=O)[C@H](CCC)NC(=O)[C@H]([C@@H](C)CC)NC(=O)[C@@H]2C[C@@H](O)CN2C(=O)[C@@H]2CCCN2C(=O)[C@H](Cc2ccccc2)NC(=O)[C@H](Cc2ccc(O)cc2)NC(=O)[C@H](CCCCNC(=O)CN2CCN(CC(=O)O)CCN(CC(=O)O)CCN(CC(=O)O)CC2)NC(=O)[C@H](CCCNC(N)=O)NC1=O [UPAR-210] ({NHPr-CO}-C[Cit]K(DOTA)YFP[Hyp]I[Nva]C-NH2; disulfide 1-10)	< 1.58 nM
CC[C@H](C)[C@@H]1NC(=O)[C@@H](C)NC(=O)[C@@H]2CCCN2C(=O)[C@H](Cc2ccccc2)NC(=O)[C@H](Cc2ccc(O)cc2)NC(=O)[C@H](CCCCNC(=O)CN2CCN(CC(=O)O)CCN(CC(=O)O)CCN(CC(=O)O)CC2)NC(=O)[C@H](CCCNC(N)=O)NC(=O)[C@@H](NC(=O)[C@H](CC(C)C)NC(=O)[C@H](CC(=O)O)NC(C)=O)CSSC[C@@H](C(N)=O)NC(=O)[C@H](CC(C)C)NC1=O [UPAR-189] (Ac-DLC[Cit]K(DOTA)YFP[dA]ILC-NH2; disulfide 3-12)	< 1.58 nM
CC(C)CCC(=O)N[C@H]1CSSC[C@@H](C(N)=O)NC(=O)[C@H](CC(C)C)NC(=O)[C@H](C(C)(C)C)NC(=O)[C@@H](C)NC(=O)[C@@H]2CCCN2C(=O)[C@H](Cc2ccccc2)NC(=O)[C@H](Cc2ccc(O)cc2)NC(=O)[C@H](CCC(N)=O)NC(=O)[C@H](CCCNC(N)=O)NC1=O [UPAR-201] ({Pentanoyl(4-Me)}-C[Cit]QYFP[dA][Tle]LC-NH2; disulfide 1-10)	10 to 100 nM
CCCCC(=O)N[C@H]1CSSC[C@@H](C(N)=O)NC(=O)[C@H](CCC)NC(=O)[C@H]([C@@H](C)CC)NC(=O)[C@@H]2C[C@@H](O)CN2C(=O)[C@@H]2C[C@@H](O)CN2C(=O)[C@H](Cc2ccccc2)NC(=O)[C@H](Cc2ccc(O)cc2)NC(=O)[C@H](CCCCNC(=O)CN2CCN(CC(=O)O)CCN(CC(=O)O)CCN(CC(=O)O)CC2)NC(=O)[C@H]([C@@H](C)O)NC1=O [UPAR-135] (Pentanoyl-CTK(DOTA)YF[Hyp][Hyp]I[Nva]C-NH2; disulfide 1-10)	< 1.58 nM
CCCCC(=O)N[C@H]1CSSC[C@@H](C(N)=O)NC(=O)[C@H](CCC)NC(=O)[C@H]([C@@H](C)CC)NC(=O)[C@@H](CN)NC(=O)[C@@H]2CCCN2C(=O)[C@H](Cc2ccccc2)NC(=O)[C@H](Cc2ccc(O)cc2)NC(=O)[C@H](CCC(N)=O)NC(=O)[C@H](CCCNC(=N)N)NC1=O [UPAR-330] (Pentanoyl-CRQYFP[dDap]I[Nva]C-NH2; disulfide 1-10)	< 1.58 nM
CCCCOC(=O)N[C@H]1CSSC[C@@H](C(N)=O)NC(=O)[C@H](CCC)NC(=O)[C@H]([C@@H](C)CC)NC(=O)[C@@H]2C[C@@H](O)CN2C(=O)[C@@H]2C[C@H](F)CN2C(=O)[C@H](Cc2ccccc2)NC(=O)[C@H](Cc2ccc(C(N)=O)cc2)NC(=O)[C@H](CCCNC(=O)CN2CCN(CC(=O)O)CCN(CC(=O)O)CCN(CC(=O)O)CC2)NC(=O)[C@H]([C@@H](C)O)NC1=O [UPAR-276] (Butoxycarbonyl-CT[Orn](DOTA)[Phe(4-CONH2)]F[Pro(cis-4-F)][Hyp]I[Nva]C-NH2; disulfide 1-10)	< 1.58 nM
CCCCC(=O)N[C@H]1CSSC[C@@H](C(N)=O)NC(=O)[C@H](CCC)NC(=O)[C@H]([C@@H](C)CC)NC(=O)[C@@H]2C[C@@H](O)CN2C(=O)[C@@H]2CCCN2C(=O)[C@H](Cc2c[nH]c3ccccc23)NC(=O)[C@H](Cc2ccc(O)cc2)NC(=O)[C@H](CCC(N)=O)NC(=O)[C@H](CCCNC(=N)N)NC1=O [UPAR-308] (Pentanoyl-CRQYWP[Hyp]I[Nva]C-NH2; disulfide 1-10)	1.58 to 10 nM
CCCCC(=O)N[C@H]1CSSC[C@@H](C(N)=O)NC(=O)[C@H](CCC)NC(=O)[C@H]([C@@H](C)CC)NC(=O)[C@H](CO)NC(=O)[C@@H]2CCCN2C(=O)[C@H](Cc2ccccc2)NC(=O)[C@H](Cc2ccc(O)cc2)NC(=O)[C@H](CCC(N)=O)NC(=O)[C@H](CCCNC(=N)N)NC1=O [UPAR-154] (Pentanoyl-CRQYFPSI[Nva]C-NH2; disulfide 1-10)	< 1.58 nM

Kd for CCCCC(=O)N[C@H]1CSSC[C@@H](C(N)=O)NC(=O)[C@H](CCC)NC(=O)[C@H](Cc2ccc(Cl)cc2)NC(=O)[C@@H]2C[C@@H](O)CN2C(=O)[C@@H]2CCCN2C(=O)[C@H](Cc2ccccc2)NC(=O)[C@H](Cc2ccc(O)cc2)NC(=O)[C@H](CCC(N)=O)NC(=O)[C@H](CCCNC(=N)N)NC1=O [UPAR-204] (Pentanoyl-CRQYFP[Hyp][Phe(4-Cl)][Nva]C-NH2; disulfide 1-10) is < 1.58 nM

The compound CCCCC(=O)N[C@H]1CSSC[C@@H](C(N)=O)NC(=O)[C@H](CCC)NC(=O)[C@H]([C@@H](C)CC)NC(=O)[C@@H]2C[C@@H](O)CN2C(=O)[C@H](CCCC)N(C)C(=O)[C@H](Cc2ccccc2)NC(=O)[C@H](Cc2ccc(O)cc2)NC(=O)[C@H](CCC(N)=O)NC(=O)[C@H](CCCNC(=N)N)NC1=O [UPAR-337] (Pentanoyl-CRQYF[NMeNle][Hyp]I[Nva]C-NH2; disulfide 1-10) showed Kd equal to < 1.58 nM
